Where do these numbers come from? They come from patent US20080234262A1.

- Tested on: breast line MDA468
- Assay remarks: In vitro cell culture growth assay (MTS), MDA468
- Type: cell-based, human
- Cond: Homo sapiens, 72 h, MDA468 cells, three days after drug treatment
Threshold 10000 nM. IC50 below it: YES. IC50 at it or above: NO.

Known results for compounds:
CC(=O)Nc1ccc(-c2nc(N3CCOCC3)c3cnn(C4CCN(Cc5ccccc5)CC4)c3n2)cc1[N+](=O)[O-] = NO
CC(C)(C)OC(=O)N1CCC(n2ncc3c(N4CCOCC4)nc(-c4ccc(NC(=O)Nc5ccc(CO)cc5)cc4)nc32)CC1 = YES
Oc1cccc(-c2nc(N3CCOCC3)c3cnn(CCN4CCOCC4)c3n2)c1 = NO

Say whether its IC50 is strictly beneath 10000 nM. Entry: CNC(=O)Nc1ccc(-c2nc(N3CCOCC3)c3cnn(C4CCN(C(=O)CC(=O)OC)CC4)c3n2)cc1
YES

Say whether its IC50 is strictly beneath 10000 nM. Entry: COC(=O)Nc1ccc(-c2nc(N3CCOCC3)c3cnn(C4CCN(C(=O)c5ccccn5)CC4)c3n2)cc1
YES

Say whether its IC50 is strictly beneath 10000 nM. Entry: COC(=O)Nc1ccc(-c2nc(N3CCOCC3)c3cnn(C4CCN(C(=O)c5ccc(F)cc5)CC4)c3n2)cc1
YES

---

- Target under test: UniProt:P42336
- Sequence (P42336 whole entry): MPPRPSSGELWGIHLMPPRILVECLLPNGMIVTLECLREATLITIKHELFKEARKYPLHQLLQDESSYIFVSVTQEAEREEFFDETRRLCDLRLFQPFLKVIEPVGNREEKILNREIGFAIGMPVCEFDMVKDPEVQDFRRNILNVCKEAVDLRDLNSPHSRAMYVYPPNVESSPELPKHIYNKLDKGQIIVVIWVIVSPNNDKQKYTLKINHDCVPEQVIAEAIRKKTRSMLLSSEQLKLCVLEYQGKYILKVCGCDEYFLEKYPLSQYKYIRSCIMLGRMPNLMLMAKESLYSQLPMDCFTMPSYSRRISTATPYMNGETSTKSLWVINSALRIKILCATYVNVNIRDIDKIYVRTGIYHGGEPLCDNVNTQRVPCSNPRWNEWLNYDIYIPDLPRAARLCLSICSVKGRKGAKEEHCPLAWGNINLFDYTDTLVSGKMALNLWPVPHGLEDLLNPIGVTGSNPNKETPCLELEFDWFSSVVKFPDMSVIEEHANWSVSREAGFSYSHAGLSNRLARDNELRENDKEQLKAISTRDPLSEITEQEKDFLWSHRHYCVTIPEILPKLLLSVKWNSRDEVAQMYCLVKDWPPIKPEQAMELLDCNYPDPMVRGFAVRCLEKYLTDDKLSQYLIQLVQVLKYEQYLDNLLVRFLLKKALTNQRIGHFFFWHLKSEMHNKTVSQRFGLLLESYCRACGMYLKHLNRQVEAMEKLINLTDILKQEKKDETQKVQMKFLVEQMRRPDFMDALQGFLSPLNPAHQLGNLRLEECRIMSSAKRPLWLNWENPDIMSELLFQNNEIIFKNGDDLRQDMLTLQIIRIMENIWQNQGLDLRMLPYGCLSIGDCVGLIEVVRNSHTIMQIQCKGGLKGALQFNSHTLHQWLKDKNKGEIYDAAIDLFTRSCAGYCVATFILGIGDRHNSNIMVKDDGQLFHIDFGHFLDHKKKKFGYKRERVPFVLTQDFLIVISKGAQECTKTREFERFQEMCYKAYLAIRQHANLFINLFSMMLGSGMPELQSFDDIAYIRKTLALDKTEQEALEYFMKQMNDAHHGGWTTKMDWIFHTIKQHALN
- Sequence (P27986 whole entry partner): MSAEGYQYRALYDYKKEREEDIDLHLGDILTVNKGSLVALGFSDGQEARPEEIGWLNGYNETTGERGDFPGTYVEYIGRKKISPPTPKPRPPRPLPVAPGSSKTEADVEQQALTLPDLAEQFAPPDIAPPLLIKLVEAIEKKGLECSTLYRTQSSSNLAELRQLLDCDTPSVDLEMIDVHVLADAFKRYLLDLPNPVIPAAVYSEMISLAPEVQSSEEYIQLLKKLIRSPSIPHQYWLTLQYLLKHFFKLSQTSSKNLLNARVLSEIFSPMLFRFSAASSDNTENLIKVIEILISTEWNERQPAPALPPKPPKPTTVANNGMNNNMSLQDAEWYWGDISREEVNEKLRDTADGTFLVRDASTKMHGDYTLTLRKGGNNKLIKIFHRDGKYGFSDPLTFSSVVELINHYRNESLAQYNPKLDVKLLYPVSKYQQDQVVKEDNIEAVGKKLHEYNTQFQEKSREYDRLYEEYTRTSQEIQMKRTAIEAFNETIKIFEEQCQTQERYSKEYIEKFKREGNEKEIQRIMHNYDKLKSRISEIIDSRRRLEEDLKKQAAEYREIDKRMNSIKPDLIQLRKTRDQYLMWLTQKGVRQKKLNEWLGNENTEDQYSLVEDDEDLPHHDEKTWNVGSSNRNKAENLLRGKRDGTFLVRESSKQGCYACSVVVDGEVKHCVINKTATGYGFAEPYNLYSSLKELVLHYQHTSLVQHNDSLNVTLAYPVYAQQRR
- Assay remarks: Fluorescence polarization assay for PI3K;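 also: PI3K kinase reaction on PIP2 with ATP, 30-60 min, product sensed by GST-GRP with red probe in fluorescence polarization (mP), controls without enzyme and at zero time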
- Assay type: biochemical
- Cond: PI3Kα; read-out: PI3Kα IC50
Measured metric: log10 of IC50 (log10 of the value in nM)
Annotation: log10 of IC50, nM basis.

COC(=O)Nc1ccc(-c2nc(N3CCOCC3)c3cnn(C4CCNCC4)c3n2)cc1 [Compound 703] = 3.03

Please supply log10 of IC50 for each of the following items, keeping them in order.
1. CNC(=O)Nc1ccc(-c2nc(N3CCOCC3)c3cnn(C4CCNCC4)c3n2)cc1 [Example 338]
2. C#CCNC(=O)Nc1ccc(-c2nc(N3CCOCC3)c3cnn(C4CCN(Cc5ccccc5)CC4)c3n2)cc1 [Compound 312]

1: 1.36; 2: 2.24

Please supply log10 of IC50 for each of the following items, keeping them in order.
1. CNC(=O)Nc1ccc(-c2nc(N3CCOCC3)c3cnn(C4CCOCC4)c3n2)cc1 [Example 403]
2. CC(=O)Nc1ccc(-c2nc(N3CCOCC3)c3cn[nH]c3n2)cc1 [Compound 233]
3. O=CN1CCC(n2ncc3c(N4CCOCC4)nc(-c4ccc5[nH]ccc5c4)nc32)CC1 [Compound 251]
4. CNC(=O)Nc1ccc(-c2nc(N3CCOCC3)c3cnn(C4CCN(CC(F)(F)F)CC4)c3n2)cc1 [Example 470]
5. COC(=O)Nc1ccc(-c2nc(N3CCOCC3)c3cnn(C4CCN(C(=O)c5cccnc5)CC4)c3n2)cc1 [Example 223]
6. O=C1CCC(n2ncc3c(N4CCOCC4)nc(-c4ccc5[nH]ccc5c4)nc32)CC1
7. CNC(=NC#N)Nc1ccc(-c2nc(N3CCOCC3)c3cnn(C4CCN(Cc5cccnc5)CC4)c3n2)cc1 [Example 407]

1: 1.65; 2: 2.65; 3: 3.45; 4: 2.27; 5: 2.71; 6: 2.85; 7: 2.89

---

- Test system: breast line MDA468
- Assay remarks: In vitro cell culture growth assay (MTS), MDA468
- Type: cell-based, human
- Cond: Homo sapiens, 72 h, MDA468 cells, three days after drug treatment
Threshold 5 µM. IC50 below it: Fulfilled. IC50 at it or above: Not fulfilled.

Known results for compounds:
CNC(=O)Nc1ccc(-c2nc(N3CCOCC3)c3cnn(C4CCN(C(=O)c5ccccc5OC)CC4)c3n2)cc1 [Example 365] = Fulfilled
c1ccc(-n2ncc3c(N4CCOCC4)nc(-c4ccc5occc5c4)nc32)cc1 = Not fulfilled

Say whether its IC50 is strictly beneath 5 µM. Entry: CNC(=O)Nc1ccc(-c2nc(N3C[C@@H](C)O[C@@H](C)C3)c3cnn(C4CCN(Cc5cccnc5)CC4)c3n2)cc1
Not fulfilled

Say whether its IC50 is strictly beneath 5 µM. Entry: COc1ncccc1CN1CCC(n2ncc3c(N4CCOCC4)nc(-c4ccc5[nH]ccc5c4)nc32)CC1
Fulfilled

Say whether its IC50 is strictly beneath 5 µM. Entry: O=C(NCCO)Nc1ccc(-c2nc(N3CCOCC3)c3cnn(C4CCN(Cc5cccnc5)CC4)c3n2)cc1 [Example 316]
Fulfilled

Say whether its IC50 is strictly beneath 5 µM. Entry: COC(=O)Nc1ccc(-c2nc(N3CCOCC3)c3cnn(C4CCN(Cc5ccccc5Cl)CC4)c3n2)cc1
Not fulfilled

Say whether its IC50 is strictly beneath 5 µM. Entry: Cc1ccc(C(=O)N2CCC(n3ncc4c(N5CCOCC5)nc(-c5ccc6[nH]ccc6c5)nc43)CC2)cn1
Fulfilled
